system: SK-OV-3 ovarian; assay: NCI tumour cell line growth inhibition, 48 h
observable: GI50

molecule: Cc1cn2c(/C=N/NC3=NCCN3)c(-c3ccc(Cl)c([N+](=O)[O-])c3)nc2s1
endpoint-result: 1.53 µM
//
molecule: CC[C@@]1(O)C(=O)OCc2c1cc1n(c2=O)Cc2cc3c(OC)cccc3nc2-1
endpoint-result: 0.00955 µM
//
molecule: COc1ncnn2ccc(-c3cnc4nc(C)n(Cc5nnc(C(C)F)o5)c4c3)c12 (stereo not given)
endpoint-result: 0.0716 µM
//
molecule: O=C(/C=C/c1cccnc1)c1ccccc1
endpoint-result: 14.6 µM
//
molecule: COC(=O)Nc1nc2ccc(C(=O)C3CC3)cc2[nH]1
endpoint-result: 0.412 µM
//
molecule: NNC(=S)N/N=C/c1ccccn1
endpoint-result: 2.89 µM
//
molecule: Cl.Fc1c[c-]c(-c2ccccn2)c(F)c1.[Pt].c1ccc([PH+](c2ccccc2)c2ccccc2[PH+](c2ccccc2)c2ccccc2)cc1
endpoint-result: 0.0883 µM
//
molecule: NS(=O)(=O)c1ccc(N=Nc2c(O)[nH]c3cccc(CCc4ccncc4)c23)cc1
endpoint-result: > 25 µM
//
molecule: CO[C@@H]1[C@H](N(C)C(=O)c2ccccc2)C[C@@H]2O[C@]1(C)n1c3ccccc3c3c4c(c5c6ccccc6n2c5c31)C(=O)NC4=O
endpoint-result: 1.67 µM
//
molecule: N#C/C(=C\c1ccc([N+](=O)[O-])cc1)n1nnc2cc(F)c(F)cc21
endpoint-result: 2.85 µM
//
molecule: CCN1C2=C(SC(=S)C1=C1SC(C(=O)c3ccccc3)=C(C(=O)c3ccccc3)S1)SC(=Nc1ccccc1)C2=O
endpoint-result: > 96.7 µM
//
molecule: COc1cc2cc(Oc3ccc(NC(=O)Nc4ccc(F)c(C(F)(F)F)c4)cc3)c(C)nc2cc1OCCN1CCOCC1
endpoint-result: 3.76 µM
//
molecule: CC1(C)CC[C@]2(CO)CC[C@]3(C)C(=CC[C@@H]4[C@@]5(C)CC[C@H](NCO)C(C)(C)[C@@H]5CC[C@]43C)[C@@H]2C1
endpoint-result: 3.29 µM
//
molecule: CN(CCNc1ccc(C(=N)N)cc1)c1ccc(C(=N)N)cc1
endpoint-result: 34.5 µM
//
molecule: Cc1cc(S(=O)(=O)Nc2n[nH]c(-c3ccc(Cl)cc3)c2C#N)c(S)cc1Cl
endpoint-result: > 100 µM
